The origin of these recorded values is PubChem BioAssay (NCI).

Tested on: NCI/ADR-RES ovarian
Assay: NCI-60 one-dose screen, 48 h
Conditions: 10 µM unless noted
Protocol: Growth inhibition of the NCI/ADR-RES human […] tumor cell line is measured as a screen for anti-cancer activity. Cells are grown in 96 well plates and exposed to the test compound for 48 hours. Compounds are tested at a single concentration, which is 10^-5 M for most compounds. The reported endpoint is percent growth (GI% or GIPRCNT), where numbers from 0 - 100% represent growth inhibition, and numbers from -100% - 0 represent cell death. For example, a value of 40 represents 60% growth inhibition. […]
The panel holds about 83,000 compounds, 20% with a hit somewhere; the sample as a whole holds those more often. The source made the active and inactive calls. The calls were made as follows: active = growth percent below 10; inactive = the rest.
Select the correct class. Options are 1 (yes) (active), 0 (no) (inactive) and nothing else.

Consider the following illustrative entries.
O=C(NCCCNC(=O)OCc1ccc2cccc(O)c2n1)OCc1ccc2cccc(O)c2n1 : 0 (no)
O=C1/C(=C\c2cccn2Cc2ccccc2)c2ccccc2N1c1c(Cl)cccc1Cl : 0 (no)
Cc1cnc([C@]23CC[C@@H](C)[C@H](C)[C@H]2C2=CC[C@@H]4[C@@]5(C)Cc6c([nH]c7ccccc67)C(C)(C)[C@@H]5CC[C@@]4(C)[C@]2(C)CC3)o1 : 0 (no)
CCc1ccc(C2=C/C(=C/c3ccccc3)C(=O)N2CCc2ccc(S(N)(=O)=O)cc2)cc1 : 0 (no)
COc1cc(NN=C(c2ccc(O)cc2)c2ccc(O)cc2)c([N+](=O)[O-])cc1[N+](=O)[O-] : 1 (yes)
CC(C)CCNCC(C)(C)O : 0 (no)

In: Each molecule tested received a call. Report the one for CC1(C)[C@@H](NOCCCN)CC[C@]2(C)[C@H]3C(=O)C=C4[C@@H]5C[C@](C)(C(=O)O)CC[C@]5(C)CC[C@@]4(C)[C@]3(C)CC[C@@H]12 .
Out: 1 (yes)

In: What outcome does the record of this test show for COc1ccc(C=C2c3ccccc3-c3ccccc32)cc1 ?
Out: 0 (no)

----------
test system: HT29 colon; assay: NCI-60 one-dose screen, 48 h; conditions: 10 µM unless noted
The panel holds about 83,000 compounds, 20% with a hit somewhere; the sample as a whole holds those more often. Activity calls are given as the source filed them. How the source made its calls: active means growth percent below 10; inactive means the rest.
I would appreciate it if you answered using one of these outcomes: active, inactive

Look over these answered cases.
N#C/C(C(=O)c1ccccc1)=C1/C(=O)Nc2ccccc21 : inactive
O=C1/C(=C/c2cccc(OCc3ccccc3)c2)Oc2cc(OCCN3CCCCC3)ccc21 : inactive
CC1(C)S[C@@H]2[C@H](NC(=O)[C@H](C(=O)O)c3cccs3)C(=O)N2[C@H]1C(=O)O : inactive
C=C(C)[C@@H]1CC[C@]2(COCCC#N)CC[C@]3(C)[C@H](CC[C@@H]4[C@@](C)(CCCNCCC#N)[C@H](C(=C)C)CC[C@]43C)[C@@H]12 : active
CC1Cc2c(Cl)ncnc2N(C)c2ccccc21 (centres undefined) : active

In: GET /call?item= CCn1cc(-c2ccnc(NCCNS(=O)(=O)c3ccc(Br)cc3)c2)c(-c2cccc(OC)c2)n1 returns the recorded outcome of this test.
Out: inactive

In: # outcome recorded in this test, key = O=[N+]([O-])c1cccc(N=NNc2cccc([N+](=O)[O-])c2)c1
Out: inactive

In: Could you please tell me the result logged for O=c1c2c3c(sc2n2cnnc2n1Cc1ccccc1)CCCC3 in this assay?
Out: inactive

In: What did the test return for Cc1ccc(-c2cc(-c3ccc(C)cc3)nc(N3CCN(CCNc4ccnc5cc(Cl)ccc45)CC3)n2)cc1 ?
Out: inactive

----------
system: LOX IMVI melanoma; experiment: NCI-60 one-dose screen, 48 h; settings: 10 µM unless noted
This is part of a sample that, as a whole, favours compounds with a hit. Of some 83,000 tested, about 20% had one in any assay. Activity calls are given as the source filed them. How the source made its calls: active means growth percent below 10; inactive means the rest.
Pick one: active, inactive

# example entries with known answers
COc1cc(NN=C(c2ccc(O)cc2)c2ccc(O)cc2)c([N+](=O)[O-])cc1[N+](=O)[O-] : inactive
CCCCN(CCCC)CC(O)c1ccc(OCc2ccccc2)c2ccccc12 (stereo not drawn) : inactive
COc1ccc(C(=O)c2nccc3cc(OC)c(OC)cc23)cc1OC : inactive
O=C(Nc1ccc(Oc2ccc(F)cc2)c(Cl)c1)c1cccnn1 : inactive
CC(C)C1=NOC(=O)C1=Cc1cn(-c2ccccc2)nc1-c1cccc([N+](=O)[O-])c1 : active

In: Assay outcome for C=CCCC1(C)NC(=O)NC1=O (stereo not drawn) : what was it?
Out: inactive

In: So what was the verdict on CCOC(=O)c1c[nH]n2c(=S)ncnc12 in this test?
Out: inactive

In: Could you kindly confirm the outcome this assay logged for Nc1ccc(NC(=O)c2ccccc2)c2c1C(=O)c1ccccc1C2=O ?
Out: inactive

In: Name the outcome recorded for CC1Cc2c(ncnc2-n2cnc3ccccc32)N(C)c2ccccc21 (stereo not drawn) in the assay.
Out: inactive

In: Look up the recorded call for Cc1cc(SC#N)ncn1 in this test.
Out: inactive

In: Write down the call the test reported for this molecule. Item: O=c1cc(-c2ccccc2)oc2c(O)c(O)ccc12
Out: inactive

In: Field: outcome | Entry: COc1ccc2c(c1)c(-c1noc(-c3cn(C)c4ncc(F)cc34)n1)cn2C
Out: inactive

In: Assay result, entry O=C(O)c1cn(C2CC2)c2cc(N3CCN(Cc4cc(Cl)ccc4O)CC3)c(F)cc2c1=O — outcome?
Out: inactive

----------
test system: UACC-62 melanoma; experiment: NCI-60 one-dose screen, 48 h (100 = growth as untreated, 0 = no growth, -100 = all killed); conditions: 10 µM unless noted
Compounds without any hit were thinned out: in the full panel of roughly 83,000, 20% have a hit.
Measure name: growth (%)
Only the number, expressed in %, is required.

Cc1ccccc1OC(=O)c1cccc(Cl)c1 : 105
CCCCCn1sc(=O)n(Cc2ccc(CNC(=O)OCc3ccc4cccc(O)c4n3)cc2)c1=O : -64.2
Cc1ccc(S(=O)(=O)n2cc(C(=O)C(=O)N3CCCCC3)c3ccccc32)cc1 : 49.5
c1cc2ccc1CNCCN1CCNCc3ccc(cc3)Oc3ccc(cc3)CNCCN(CCNCc3ccc(cc3)O2)CCNCc2ccc(cc2)Oc2ccc(cc2)CNCC1 : -76
CCc1ccc(C2=C/C(=C/c3ccccc3)C(=O)N2CCc2ccc(S(N)(=O)=O)cc2)cc1 : 95.2

In: Specify the recorded growth for CCN(CC)c1ccc(/C=C/C=C2\NC(=O)NC2=O)cc1 , system: UACC-62 melanoma.
Out: 33

In: Enter recorded growth with UACC-62 melanoma for COC(=O)C(=Cc1ccccc1[N+](=O)[O-])C(=O)OC here.
Out: 19.6

In: Param request: growth | system UACC-62 melanoma | item CC1=CC[C@@H]2C(C)(C)C(=O)CC[C@@]2(C)[C@@H]1COc1ccc2ccc(=O)oc2c1
Out: 41.9

In: Give UACC-62 melanoma growth for the following compound: C[n+]1cccc(NC(=O)c2ccc3ccc4ccc(C(=O)Nc5ccc[n+](C)c5)nc4c3n2)c1
Out: -54.4

----------
system: UO-31 renal; assay: NCI-60 one-dose screen, 48 h (100 = growth as untreated, 0 = no growth, -100 = all killed); conditions: 10 µM unless noted
Compounds without any hit were thinned out: in the full panel of roughly 83,000, 20% have a hit. Active and inactive are the calls of the source. The calls were made as follows: active = growth percent below 10; inactive = the rest.
# growth per record follows

Answered cases to consult:
CCOC(=O)c1nn(C2CCCCO2)c2ccc(NC(=O)Cn3nnc4ccccc43)cc12 (centres undefined) : 82.6% (inactive)
O=c1cc(-c2ccccc2)oc2c(O)c(O)ccc12 : 36.2% (inactive)
C#C[C@]1(O)CC[C@H]2[C@@H]3CC=C4c5nc(Nc6ccc(OC)cc6OC)sc5CC[C@]4(C)[C@H]3CC[C@@]21C : 13.2% (inactive)
Nc1nc(SCc2cccc([N+](=O)[O-])c2)c2[nH]cnc2n1 : 64.7% (inactive)
CC(=O)OC[C@]12CC[C@@H](C(=O)CBr)[C@@H]1[C@H]1CC[C@@H]3[C@@]4(C)CCCNC(C)(C)[C@@H]4CC[C@@]3(C)[C@]1(C)CC2 : -99.3% [100 µM] (active)

In: # return recorded growth for entry Nc1ccc(NC(=O)c2ccccc2)c2c1C(=O)c1ccccc1C2=O
Out: 74.2% (inactive)

In: Fill in growth for record c1ccc(-c2nnc(-c3c[nH]c4ncccc34)s2)cc1
Out: 51.6% (inactive)

In: Find the measured growth of CC(C)CCSC1=CC(=O)c2ccccc2C1=O and report it.
Out: -63.5% (active)

In: Give the reported value of growth for this record: C=C(C)[C@@H]1CC[C@]2(c3ncc(C)o3)CC[C@]3(C)[C@H](CC[C@@H]4[C@@](C)(CCC#N)[C@H](C(=C)C)CC[C@]43C)[C@@H]12
Out: -94.4% [100 µM] (active)

In: Report measured growth; entry is CCC(Br)(CC)C(=O)c1ccc(OCC(=O)O)c(Cl)c1Cl
Out: 92.1% (inactive)

In: Return growth (reported value) for this molecule: CCCC(NC(=O)OCc1ccccc1)C(=O)O (centres undefined)
Out: 65.1% (inactive)

In: Quick one: give measured growth for CC1Cc2c(ncnc2-n2cnc3ccccc32)N(C)c2ccccc21 (centres undefined)
Out: 46.4% (inactive)

In: Give the reported value of growth for this record: O=C(N/N=C/c1ccc([N+](=O)[O-])cc1)c1ccc(Br)o1
Out: -17.5% (active)

In: Name the recorded growth of the molecule listed here: O=[N+]([O-])c1cc(CCl)ccc1OCCBr
Out: 80.8% (inactive)

In: Give growth for the following molecule: COc1ccc2c(c1)c(-c1noc(C(=O)c3cn(C)c4ncc(Br)cc34)n1)cn2C
Out: 70.5% (inactive)

In: Please give the documented growth of COc1ccc(OC)c([N+](=O)[O-])c1C(=O)CNC(C)=O
Out: 84.7% (inactive)

In: Tell me measured growth for CC1(C)C(=O)/C(=C\c2ccco2)C[C@]2(C)[C@H]3CC=C4[C@@H]5C[C@](C)(C(=O)O)CC[C@]5(C)CC[C@@]4(C)[C@]3(C)CC[C@@H]12 please.
Out: -95.5% [100 µM] (active)

In: Given CCCCN(CC)CC(CC)Nc1cc(OC)cc2cccnc12 (centres undefined) , respond with its growth.
Out: 102% (inactive)

In: Fill in reported growth for this entry: CSc1nc2sc3cc(Cl)c(Cl)cc3n2c(=N)c1C#N
Out: 69.3% (inactive)

In: Answer with the recorded growth for the molecule listed here: CCC(C)[C@H](NC(=O)NC(=O)NC(=O)CI)C(=O)OC (some centres undefined)
Out: -21.3% (active)

In: Return growth (reported value) for this molecule: COc1ccc(/C=C/C(=C/c2c(O)[nH]c3cc(Br)ccc23)N=O)cc1
Out: 88.5% (inactive)

In: Return value of growth for input O=[N+]([O-])c1cccc(/C=C/c2ccc3ccccc3n2)c1 , no commentary.
Out: 76.6% (inactive)

In: Please look at this molecule and report its growth: CCN(CC)CCSC(=O)C(O)(c1ccccc1)C1CCCC1 (centres undefined)
Out: 78.1% (inactive)

In: # return recorded growth for entry Cc1ccc(-c2cn(C/C=C3\C=CN(S(=O)(=O)c4ccccc4)CC3)nn2)cc1
Out: 72.6% (inactive)
